Test: Solubility of lycopene in organic solvents (saturation concentration, HPLC and absorbance at 472 nm)
Conditions: cyclohexane, organic solvent or mixture, thermodynamic from solid, maximal solubility in cyclohexane, after a year and a half of storage at −20° C.
Quantity kind: solubility (µM)
Please respond with the number in µM and leave the unit unwritten.

Request: Retrieve solubility measured for `CC(C)=CCC/C(C)=C/C=C/C(C)=C/C=C/C(C)=C/C=C/C=C(C)/C=C/C=C(C)/C=C/C=C(\C)CCC=C(C)C` and print it.
Result: 2650
